The measurements presented in this section are drawn from patent US10703764B2.

Target: BRD4 BD1 (Homo sapiens, UniProt O60885)
Experiment: AlphaScreen binding assay, BRD4 Bromodomain 1
pIC50: −log10 of the molar value.
reported metric: pIC50

See these solved cases before continuing.
smiles=COC(=O)N1c2ccc(-c3cn(C)nn3)cc2N(C(=O)OC(C)C)C[C@@H]1C experimental_target="BRD4 BD1 (Homo sapiens, UniProt O60885)" value_observed="6.00 to 7.00"
smiles=CC(=O)N1c2ccc(-c3cnn(C4CNC4)c3)cc2N(C(=O)Oc2ccc(F)cc2)C[C@@H]1C experimental_target="BRD4 BD1 (Homo sapiens, UniProt O60885)" value_observed="6.00 to 7.00"
smiles=CC(=O)N1c2ccc(-c3cccc(N4CCCS4(=O)=O)c3)cc2N(C(=O)C2CC2)C[C@@H]1C experimental_target="BRD4 BD1 (Homo sapiens, UniProt O60885)" value_observed="5.00 to 6.00"

Below: the item to evaluate.
Qu. GET /values?readout=pIC50&system=BRD4 BD1 (Homo sapiens, UniProt O60885)&item= CC(=O)N1c2ccc(-c3ccc(S(C)(=O)=O)cc3)cc2N(C(=O)Oc2cccc(C(F)(F)F)c2)C[C@@H]1C
Ans. 5.00 to 6.00

----------
Target: BRD4 BD2 (Homo sapiens, UniProt O60885)
Assay: AlphaScreen binding assay, BRD4 Bromodomain 2
pIC50: −log10 of the molar value.
# pIC50 listing for each entry below

See these solved cases before continuing.
compound=CC(=O)N1c2ccc(C(=O)c3ccccc3)cc2N(C(=O)c2ccco2)C[C@@H]1C value_observed="< 6.30"
compound=CC(=O)N1c2ccc(-c3cccc(NS(C)(=O)=O)c3)cc2N(C(=O)C2CC2)C[C@@H]1C value_observed="6.30 to 7.30"
compound=CC(=O)N1c2ccc(-c3ccc(C(=O)N4CC[C@@H](N(C)C)C4)cc3)cc2N(C(=O)OC(C)C)C[C@@H]1C value_observed="> 7.30"
compound=CC(=O)N1c2ccc(-c3cnn(CC4COC4)c3)cc2N(C(=O)OC(C)C)C[C@@H]1C value_observed="6.30 to 7.30"

Qu. So what does the record say about pIC50 for CC(=O)N1c2ccc(-c3cnn(C4COC4)c3)cc2N(C(=O)OCC2CC2(F)F)C[C@@H]1C (stereo partly drawn) ?
Ans. < 6.30

Qu. So what does the record say about pIC50 for CC(=O)N1c2ccc(-c3ccc(S(C)(=O)=O)cc3)cc2N(c2ncc3ccccc3n2)C[C@@H]1C ?
Ans. 6.30 to 7.30

Qu. So what does the record say about pIC50 for CC(=O)N1c2ccc(-c3ccc(S(C)(=O)=O)cc3)cc2N(c2n[nH]c3ccccc23)C[C@@H]1C ?
Ans. 6.30 to 7.30

Qu. So what does the record say about pIC50 for CCOC(=O)N1C[C@H](C)N(C(C)=O)c2ccc(-c3ccc4c(c3)CCCN4S(C)(=O)=O)cc21 ?
Ans. 6.30 to 7.30

Qu. So what does the record say about pIC50 for CC(=O)N1c2ccc(-c3ccc(S(=O)(=O)NC(C)(C)C)cc3)cc2N(C(=O)C2CCC2)C[C@@H]1C ?
Ans. 6.30 to 7.30

Qu. So what does the record say about pIC50 for COC(=O)N1c2ccc(-c3ccc(N4CCCS4(=O)=O)cc3)cc2N(C(=O)Oc2ccccn2)C[C@@H]1C ?
Ans. 6.30 to 7.30

Qu. So what does the record say about pIC50 for CCS(=O)(=O)Nc1ccc(-c2ccc3c(c2)N(C(=O)OC2CCOCC2)C[C@H](C)N3C(C)=O)cc1 ?
Ans. 6.30 to 7.30

Qu. So what does the record say about pIC50 for CC(=O)N1c2ccc(-c3cnn(C4CNC4)c3)cc2N(C(=O)OC2CC(F)(F)C2)C[C@@H]1C ?
Ans. > 7.30

----------
# pIC50 listing for each entry below
Target: BRD4 BD1 (Homo sapiens, UniProt O60885)
Assay: AlphaScreen binding assay, BRD4 Bromodomain 1
Protocol: The binding of Example compounds to BRD4 Bromodomain 1 and BRD4 Bromodomain 2 was assessed using 384-well AlphaScreen assay technology. His-epitope tagged BRD4 BD144-168 and BRD4 BD2333-460 were cloned, expressed, and purified to homogeneity. BRD4 BD1 and BRD4 BD2 binding and inhibition was assessed by monitoring the engagement of biotinylated Histone H4 (1-21) K5/8/12/16 tetra-acetylated peptide with the targets using the AlphaScreen technology (PerkinElmer). […]
pIC50: −log10 of the molar value.

See these solved cases before continuing.
smiles=COc1ccc(S(=O)(=O)N2C[C@H](C)N(C(C)=O)c3ccccc32)c(C)c1 value_observed="< 5.00"
smiles=COc1ccccc1NC(=O)N1C[C@H](C)N(C(C)=O)c2ccc(-c3ccc(S(C)(=O)=O)cc3)cc21 value_observed="5.00 to 6.00"
smiles=CC(=O)N1c2ccccc2N(Cc2ccc(C(C)C)cc2)C[C@@H]1C value_observed="< 5.00"
smiles=CC(=O)N1c2ccc(-c3ccc(S(=O)(=O)C4CC4)cc3)cc2N(C(=O)OC(C)C)C[C@@H]1C value_observed="6.00 to 7.00"
smiles=CC(=O)N1c2ccc(-c3cnn(C(F)F)c3)cc2N(C(=O)OC(C)C)C[C@@H]1C value_observed="6.00 to 7.00"
smiles=CC(=O)N1C[C@H](C)N(C(C)=O)c2ccc(-c3ccc(S(C)(=O)=O)cc3)cc21 value_observed="5.00 to 6.00"
smiles=CC(=O)N1c2ccc(-c3ccc4c(c3)N(C)S(=O)(=O)N4)cc2N(C(=O)OC(C)C)C[C@@H]1C value_observed="6.00 to 7.00"
smiles=CC(=O)N1c2ccccc2N(C(=O)c2ccc3ncsc3c2)C[C@@H]1C value_observed="< 5.00"

Qu. So what does the record say about pIC50 for COC(=O)N1c2ccc(-c3cnc(N)cn3)cc2N(C(=O)OC(C)C)C[C@@H]1C ?
Ans. 6.00 to 7.00

Qu. So what does the record say about pIC50 for CC(=O)N1c2ccc(-c3ccc(NS(C)(=O)=O)c(C)c3)cc2N(C(=O)OC(C)C)C[C@@H]1C ?
Ans. 6.00 to 7.00

Qu. So what does the record say about pIC50 for CC(=O)N1c2ccc(-c3cnn(C(C)(C)CO)c3)cc2N(C(=O)Oc2ccc(F)cc2F)C[C@@H]1C ?
Ans. 6.00 to 7.00

----------
Target: BRD4 BD1 (Homo sapiens)
Assay: AlphaScreen binding assay, BRD4 Bromodomain 1
pIC50: −log10 of the molar value.
reported metric: pIC50

See these solved cases before continuing.
molecule=CC(=O)N1c2ccc(-c3cnn(Cc4ccnn4C)c3)cc2N(C(=O)C2CC2)C[C@@H]1C value_observed="6.00 to 7.00"
molecule=CC(=O)N1c2ccc(-c3cccc(NS(=O)(=O)c4ccc(C)cc4)c3)cc2N(C(=O)c2ccco2)C[C@@H]1C value_observed="6.00 to 7.00"

Qu. So what does the record say about pIC50 for CC(C)OC(=O)N1C[C@H](C)N(C(=O)C2CC2)c2ccc(-c3cnn(CC4CC4)c3)cc21 ?
Ans. 6.00 to 7.00

Qu. So what does the record say about pIC50 for CC(=O)N1c2ccccc2N(Cc2ccccc2OCCN(C)C)C[C@@H]1C ?
Ans. < 5.00

----------
Biological target: BRD4 BD2 (Homo sapiens, UniProt O60885)
Experiment: AlphaScreen binding assay, BRD4 Bromodomain 2
# IC50 listing for each entry below

smiles=CC(=O)N1c2ccc(-c3ccc(S(C)(=O)=O)cc3)cc2N(C(=O)Oc2ccccc2)C[C@@H]1C value_observed="< 50 nM"

Qu. So what does the record say about IC50 for CCOC(=O)N1C[C@H](C)N(C(C)=O)c2ccc(-c3cccc(S(=O)(=O)CC)c3)cc21 ?
Ans. 50 to 500 nM

Qu. So what does the record say about IC50 for CC(=O)N1c2ccccc2N(S(=O)(=O)c2cn(C)c(C)n2)C[C@@H]1C ?
Ans. > 500 nM

Qu. So what does the record say about IC50 for CC(=O)N1c2ccc(-c3ccc4c(cnn4C)c3)cc2N(C(=O)c2ccco2)C[C@@H]1C ?
Ans. 50 to 500 nM

----------
Target: BRD4 BD1 (Homo sapiens, UniProt O60885)
Assay: AlphaScreen binding assay, BRD4 Bromodomain 1
Experimental: The binding of Example compounds to BRD4 Bromodomain 1 and BRD4 Bromodomain 2 was assessed using 384-well AlphaScreen assay technology. His-epitope tagged BRD4 BD144-168 and BRD4 BD2333-460 were cloned, expressed, and purified to homogeneity. BRD4 BD1 and BRD4 BD2 binding and inhibition was assessed by monitoring the engagement of biotinylated Histone H4 (1-21) K5/8/12/16 tetra-acetylated peptide with the targets using the AlphaScreen technology (PerkinElmer). […]
reported metric: IC50

See these solved cases before continuing.
molecule="CC(=O)N1c2ncc(-c3ccc(C(=O)N(C)C)cc3)cc2N(C(=O)c2ccco2)C[C@@H]1C [Example I-272]" experimental_target="BRD4 BD1 (Homo sapiens, UniProt O60885)" reported_metric=IC50 value_observed="1000 to 10000 nM"
molecule="CC(C)OC(=O)N1C[C@H](C)N(C(=O)C2CC2)c2ccc(-c3cnn(CC(=O)N(C)C)c3)cc21 [Example I-311]" experimental_target="BRD4 BD1 (Homo sapiens, UniProt O60885)" reported_metric=IC50 value_observed="1000 to 10000 nM"

Qu. So what does the record say about IC50 for CC(=O)N1c2ccc(-c3ccc(N(C)C)cc3)cc2N(C(=O)c2ccco2)C[C@@H]1C [Example I-871] ?
Ans. 100 to 1000 nM

Qu. So what does the record say about IC50 for CC(=O)N1c2ccc(-c3ccccc3)cc2N(C(=O)c2ccco2)C[C@@H]1C [Example I-804] ?
Ans. 1000 to 10000 nM

Qu. So what does the record say about IC50 for CC(=O)N1c2ccc(-c3cnn(C4COC4)c3)cc2N(C(=O)OCCC(F)(F)F)C[C@@H]1C [Example I-69] ?
Ans. < 100 nM

Qu. So what does the record say about IC50 for CC(=O)N1c2ccc(-c3cnn(C4CCNC(=O)C4)c3)cc2N(C(=O)OC2CC(F)(F)C2)C[C@@H]1C (stereo partly drawn) [Example I-164] ?
Ans. 100 to 1000 nM
